These entries and their values trace back to ChEMBL document CHEMBL6121018.

- ASSAY_REMARKS: in vitro
- ASSAY_CONTEXT: Sprague-Dawley, rat, primary cortical neurons
- Description: Cytotoxicity against Sprague-Dawley rat Primary cortical neuron assessed as cell viability incubated for 24 hrs by MTT assay
# Lookup of reported viability at 24 h keyed by entry
Your answer is read as %, so omit the unit and give the number.

Guide cases for viability at 24 h, answers given:
Look up viability at 24 h: CN(C)C1CCN(c2ccc(Nc3nccc(-n4cc(/C=C/c5ccccc5)c(C(N)=O)n4)n3)cc2)CC1
102

Look up viability at 24 h: N#CCc1cc(-c2ccc(Cl)c(Cl)c2)n(-c2ccnc(N[C@H]3CCN(C(=O)C4CC4)C3)n2)n1
103

Next:
Look up viability at 24 h: CN1CCN(c2ccc(Nc3nccc(-n4cc(/C=C/c5ccccc5)c(C(N)=O)n4)n3)cc2)CC1
104
